pIC50: −log10 of the molar value.
Literature-derived pIC50 for TNFα (Homo sapiens, UniProt P01375) follows.

molecule	relation.operator	pIC50
CN(CCCCCN(Cc1cccnc1)Cc1cn(-c2cccc(C(F)(F)F)c2)c2ccccc12)C1CCCCC1	=	4.70
O=S(=O)(c1ccccc1)n1cc(CN(CCCCNC2CCCCCC2)Cc2cccnc2F)c2ccccc21	=	5.08
CN(CCN(Cc1ccncc1)Cc1cn(-c2cccc(C(F)(F)F)c2)c2ccccc12)C1CCCCC1	=	4.87
O=S(=O)(c1ccccc1)n1cc(CN(CCCCNC2CCCCC2)Cc2cn(S(=O)(=O)c3ccccc3)c3ccccc23)c2ccccc21	=	4.82
O=c1c2ccc(-c3cnc(N4CCOCC4)nc3)cc2n2n1CCC2c1ccccc1OC(F)F (stereo not drawn)	>	6.00
O=S(=O)(c1ccccc1)n1cc(CN(CCCCCNC2CCCCC2)Cc2cccnc2F)c2ccccc21	=	4.97
O=S(=O)(c1ccccc1)n1cc(CN(CCCCNCc2cccnc2F)Cc2cn(S(=O)(=O)c3ccccc3)c3ccccc23)c2ccccc21	<	4.30
O=c1c2ccc(-c3cnc(N4CCOCC4)nc3)cc2n2n1CCCC2c1ccccc1OC(F)F (stereo not drawn)	>	6.00
C[C@@H]1CN(c2ncc(-c3ccc4c(c3)N(Cc3ccccc3OC(F)F)C(C)(C)C4=O)cn2)CCN1C(=O)COCCOCCOCCOCCOCCOCCn1cc(CC[C@H](NC(=O)c2ccc(NCc3cnc4nc(N)nc(O)c4n3)cc2)C(=O)O)nn1	=	7.22
CCN(CC)S(=O)(=O)NCCCCN(Cc1cccnc1F)Cc1cn(S(=O)(=O)c2ccccc2)c2ccccc12	<	4.30
O=C1c2ccc(-c3cnc(N4CCOCC4)nc3)cc2[C@@H]2[C@H](c3ccccc3OC(F)F)CCN12 (single isomer, unassigned)	<	5.00
CCn1cc(CN(CCCCN(C)C2CCCCC2)Cc2cccnc2F)c2ccccc21	<	4.30
CN(CCCCN(Cc1ccnc(F)c1)Cc1cn(S(=O)(=O)c2ccccc2)c2ccccc12)C1CCCCC1	=	5.14
O=S(=O)(c1ccccc1)n1cc(CN(CCOCCNC2CCCCC2)Cc2cccnc2F)c2ccccc21	=	5.05

###

Consider the following pIC50 data for TNFα (Homo sapiens), collected from several reports.
pIC50: −log10 of the molar value.
test.readout: pIC50

molecule	measurement.target	relation.operator	recorded.measurement
O=S(=O)(c1ccccc1)n1cc(CN(CCCCNC2CCCCC2)Cc2ccncc2)c2ccccc21	TNFα (Homo sapiens)	=	5.27
O=[N+]([O-])c1ccccc1S(=O)(=O)NCCCN(Cc1cccnc1)Cc1cn(S(=O)(=O)c2ccccc2)c2ccccc12	TNFα (Homo sapiens)	<	4.30
O=S(=O)(c1ccccc1)n1cc(CN(Cc2ccnc(F)c2)CC2CCCN(C3CCCCC3)C2)c2ccccc21 (stereo not drawn)	TNFα (Homo sapiens)	=	4.96
FC(F)(F)c1cccc(-n2cc(CN(Cc3ccccn3)CC3CCCN(C4CCCCC4)C3)c3ccccc32)c1 (stereo not drawn)	TNFα (Homo sapiens)	=	4.70
FC(F)(F)c1cccc(-n2cc(CN(CCCCNC3CCCCC3)Cc3cccnc3)c3ccccc32)c1	TNFα (Homo sapiens)	=	4.85
Cc1ccc(OC(F)F)c([C@H]2CCn3c(=O)c4ccc(-c5cnc(N6CCN7C(=O)NC[C@H]7C6)nc5)cc4n32)c1 (single isomer, unassigned)	TNFα (Homo sapiens)	>	6.00
FC(F)(F)c1cccc(-n2cc(CN(CCCCNC3CCCCC3)Cc3ccncc3)c3ccccc32)c1	TNFα (Homo sapiens)	=	4.77
O=C1C[C@@H](CNc2ncc(-c3ccc4c(=O)n5n(c4c3)[C@H](c3ccccc3OC(F)F)CC5)cn2)CN1 (single isomer, unassigned)	TNFα (Homo sapiens)	>	6.00
CCCCN(CCOCCN(Cc1cccnc1F)Cc1cn(S(=O)(=O)c2ccccc2)c2ccccc12)C1CCCC1	TNFα (Homo sapiens)	=	4.94
O=C1NC[C@H]2CN(c3ncc(-c4ccc5c(c4)[C@H]4[C@@H](c6ccccc6OC(F)F)CCN4C5=O)cn3)CCN12 (single isomer, unassigned)	TNFα (Homo sapiens)	>	6.00
CN(CCCCN(Cc1cccnc1)Cc1cn(-c2cccc(C(F)(F)F)c2)c2ccccc12)C1CCCCC1	TNFα (Homo sapiens)	=	5.03
CN(CCCCN(Cc1cccnc1F)Cc1cn(S(=O)(=O)c2ccccc2)c2ccccc12)C1CCCCCCC1	TNFα (Homo sapiens)	=	5.10
CN(CCCCCN(Cc1ccncc1)Cc1cn(S(=O)(=O)c2ccccc2)c2ccccc12)C1CCCCC1	TNFα (Homo sapiens)	=	5.34
CC(C)(O)c1ncc(-c2ccc3c(c2)[C@@H]2[C@H](c4ccccc4OC(F)F)CCN2C3=O)cn1 (single isomer, unassigned)	TNFα (Homo sapiens)	<	5.00
O=c1c2ccc(-c3cnc(N4CCO[C@@H](CO)C4)nc3)cc2n2n1CC[C@H]2c1ccccc1OC(F)F (single isomer, unassigned)	TNFα (Homo sapiens)	>	6.00
CN(CCCCN(Cc1cccnc1F)Cc1cn(S(=O)(=O)c2ccccc2)c2ccccc12)C1CCCC1	TNFα (Homo sapiens)	=	5.01
O=S(=O)(c1ccccc1)n1cc(CN(CCCCNC2CCCCC2)Cc2ccnc(F)c2)c2ccccc21	TNFα (Homo sapiens)	=	5.07
O=S(=O)(c1ccccc1)n1cc(CN(Cc2ccncc2)CC2CCCN(C3CCCCC3)C2)c2ccccc21 (stereo not drawn)	TNFα (Homo sapiens)	=	4.95
CN(CCCN(Cc1cccnc1)Cc1cn(-c2cccc(C(F)(F)F)c2)c2ccccc12)C1CCCCC1	TNFα (Homo sapiens)	=	5.37
Cc1nc(C(C)(C)O)ncc1-c1ccc2c(=O)n3n(c2c1)[C@@H](c1ccccc1OC(F)F)CC3	TNFα (Homo sapiens)	>	6.00
Cc1nc2cc(F)c(-c3cnc(N4CCN(C(=O)COCCn5cc(COCCOCCOCCOCCNC(=O)CC[C@H](NC(=O)c6ccc(SCCc7cc8c(=O)[nH]c(N)nc8[nH]7)cc6)C(=O)O)nn5)CC4)nc3)nc2c(N[C@H](C)c2cc(C#N)ccc2F)c1Cl	TNFα (Homo sapiens)	=	7.72
O=C1NC[C@H]2CN(c3ncc(-c4ccc5c(=O)n6n(c5c4)[C@@H](c4ccccc4OC(F)F)CC6)cn3)CCN12 (single isomer, unassigned)	TNFα (Homo sapiens)	>	6.00
O=S(=O)(c1ccccc1)n1cc(CN(CCCCNC2CCCCCCC2)Cc2cccnc2F)c2ccccc21	TNFα (Homo sapiens)	=	4.95
O=S(=O)(c1ccccc1)n1cc(CN(CCCCNC2CCCCC2)Cc2ccc(F)nc2)c2ccccc21	TNFα (Homo sapiens)	=	5.11
O=S(=O)(c1ccccc1)n1cc(CN(CCCCCNC2CCCCC2)Cc2cccc(F)n2)c2ccccc21	TNFα (Homo sapiens)	=	4.86
